experiment: Times to onset, minimal and maximal, observed in the indexed observations. [column 'DELAI' in source]; details: human
quantityMeasured: Hepatotoxicity (time to onset)

Solved cases below.
molecule | result
CN(C)CC(Oc1ccccc1)Oc1ccccc1 | 6 days
Cc1onc(-c2ccccc2Cl)c1C(=O)N[C@@H]1C(=O)N2[C@@H]1SC(C)(C)[C@@H]2C(=O)O | 2 days - 1 month

Next item in the queue.
Fill in: Hepatotoxicity (time to onset) of CN1c2ccccc2C(NCCCCCCC(=O)O)c2ccc(Cl)cc2S1(=O)=O (configuration not stated) is ___ 1 week - 6 months

====

assay: Highest frequency of moderate liver toxicity observed during clinical trials, expressed as a percentage. [column '% BIOL' in source]; conditions: human
# Hepatotoxicity (moderate) >= 2% gives condition met, anything below gives condition not met

itemSmiles | categoryLabel
CCOC(=O)[C@H](CCc1ccccc1)N[C@H]1CCc2ccccc2N(CC(=O)O)C1=O | condition not met

Can O=c1[nH]cnc2c1ncn2[C@H]1CC[C@@H](CO)O1 be said to have Hepatotoxicity (moderate) at or above 2%? condition met

Can O=C1Cc2cc(CCN3CCN(c4nsc5ccccc45)CC3)c(Cl)cc2N1 be said to have Hepatotoxicity (moderate) at or above 2%? condition not met

Can CC(=O)[C@H]1CC[C@H]2[C@@H]3CC[C@@H]4C[C@H](O)CC[C@]4(C)[C@H]3CC[C@]12C be said to have Hepatotoxicity (moderate) at or above 2%? condition met

====

details: human, serum
Entries whose Hepatotoxicity (moderate) is below 4 take t; entries at or above 4 take f.

compound | categoryLabel
C[C@]12CC[C@H]3[C@@H](CCC4=CC(=O)CC[C@@H]43)[C@@H]1CC[C@@H]2O [NANDROLONE] | t
Cc1cccc(N2CC(CO)OC2=O)c1 (stereo not drawn) [TOLOXATONE] | t
Nc1nc(/C(=C/CC(=O)O)C(=O)N[C@@H]2C(=O)N3C(C(=O)O)=CCS[C@H]23)cs1 [CEFTIBUTEN] | f
CC(=O)S[C@@H]1CC2=CC(=O)CC[C@]2(C)[C@H]2CC[C@@]3(C)[C@@H](CC[C@@]34CCC(=O)O4)[C@H]12 [SPIRONOLACTONE] | t
CC(O)(P(=O)(O)O)P(=O)(O)O [ETIDRONIC ACID] | t

Strictly below 4: is that where Hepatotoxicity (moderate) of CO[C@@]1(NC(=O)CSCC#N)C(=O)N2C(C(=O)O)=C(CSc3nnnn3C)CS[C@@H]21 [CEFMETAZOLE] sits? f

Strictly below 4: is that where Hepatotoxicity (moderate) of CCN1CCN(C(=O)N[C@@H](C(=O)N[C@@H]2C(=O)N3[C@@H]2SC(C)(C)[C@@H]3C(=O)O)c2ccccc2)C(=O)C1=O [PIPERACILLIN] sits? f

Strictly below 4: is that where Hepatotoxicity (moderate) of CC(C)[C@@H]1NC(=O)[C@H](CCCCN)NC(=O)[C@@H](Cc2c[nH]c3ccccc23)NC(=O)[C@H](Cc2ccc(O)cc2)NC(=O)[C@@H](NC(=O)[C@H](N)Cc2ccc3ccccc3c2)CSSC[C@@H](C(=O)N[C@H](C(N)=O)[C@@H](C)O)NC1=O [LANREOTIDE] sits? t

Strictly below 4: is that where Hepatotoxicity (moderate) of CCC(Cc1c(I)cc(I)c(N)c1I)C(=O)O (stereo not drawn) [IOPANOIC ACID] sits? t

Strictly below 4: is that where Hepatotoxicity (moderate) of CN(C)CCOC(c1ccccc1)c1ccccc1 [DIPHENHYDRAMINE] sits? t

Strictly below 4: is that where Hepatotoxicity (moderate) of NC(=O)c1cnccn1 [PYRAZINAMIDE] sits? f

Strictly below 4: is that where Hepatotoxicity (moderate) of CNNCc1ccc(C(=O)NC(C)C)cc1 [PROCARBAZINE] sits? t

Strictly below 4: is that where Hepatotoxicity (moderate) of CCNC1=Nc2ccc(Cl)cc2C(C)(c2ccccc2)O1 (stereo not drawn) [ETIFOXINE] sits? t

Data provenance is ChEMBL document CHEMBL3137667.
